Values were extracted from patent US20260374766A1.

- System: H1299 p53 R273H
- assay.remarks: Cell Proliferation Assay (CellTiter-Glo, CTG), H1299 p53 R273H (NClH1299-inducible p53 R273H)
- Type: cell-based
- condition.summary: Homo sapiens, NCI-H1299, 120 h, CellTiter-Glo, H1299 p53 R273H, 5 days
pIC50: −log10 of the molar value.
experimental.endpoint: pIC50

Below, each entry is followed by its recorded pIC50 result.
| compound.structure.string | pIC50 |
| --- | --- |
| CNC(=O)c1ccc(NCC#Cc2nc3c(N[C@@H]4CCN(C)C[C@@H]4F)cccn3c2CC(F)(F)F)c(OC)c1 | ≤ 5.00 |
| CNC(=O)c1ccc(NCC#Cc2nc3c(NCC4(F)CNC4)cccn3c2SC(F)(F)F)c(OC)c1 | ≤ 5.00 |
| CNC(=O)c1ccc(OC)c(NCC#Cc2nn3c(N[C@@H]4CCNC[C@@H]4F)cccc3c2SC(F)F)c1 | 5.10 to 5.30 |

Next compound, pIC50 to be filled in.
Consider the compound shown here: `CNC(=O)c1ccc(NCC#Cc2nc3c(N[C@H]4CCNC(=O)C4)cccn3c2SC(F)(F)F)c(OC)c1` What is its recorded pIC50? ≤ 5.00

====

- Test system: H1299 p53 Y220C
- assay.remarks: Cell Proliferation Assay (CellTiter-Glo, CTG), H1299 p53 Y220C (NClH1299-inducible p53 Y220C)
- Assay type: cell-based
- condition.summary: Homo sapiens, NCI-H1299, 120 h, CellTiter-Glo, H1299 p53 Y220C, 5 days
- Experimental: Inducible p53 Y220C and R273H constructs (Tet-One inducible expression system; Takara) were stably expressed in NClH1299 cells by lentiviral transduction. NUGC3, A549, BxPC3, T3M4, HuH7, HCC2935, MFE296, NClH1299, NClH1299-inducible p53 Y220C, and NClH1299-inducible p53 R273H cell lines were used for cell proliferation assay. […] The luminescent signal was measured by PheraStar microplate reader and IC50 was calculated.
experimental.endpoint: IC50

| compound.structure.string | tested.on | IC50 |
| --- | --- | --- |
| COc1cc(C(=O)NC2CC2)ccc1NCC#Cc1nc2c(N[C@@H]3CCN(C)C[C@@H]3F)cccn2c1SC(F)(F)F | H1299 p53 Y220C | < 750 nM |

Provide IC50 for all items below, preserving their order.
1. CNC(=O)c1cncc(NCC#Cc2nc3c(N[C@@H]4CCN(C)C[C@@H]4F)cccn3c2SC(F)(F)F)c1
2. CNC(=O)c1ccc(NCC#Cc2nc3c(N[C@@H]4C[C@H]5CC[C@@H]([C@@H]4F)N5C)cccn3c2SC(F)(F)F)c(OC)c1
3. COC(=O)N1CCC(Nc2cccn3c(CC(F)(F)F)c(C#CCNc4ccc(S(C)(=O)=O)cc4OC)nc23)CC1

1. 750 to 1500 nM
2. < 750 nM
3. > 3000 nM

====

- tested.on: p53 Y220C (Homo sapiens, UniProt P04637, Y220C)
- assay.remarks: Luciferase Reporter Assay (Luc), p53 response element, NClH1299 cells with inducible p53 Y220C
- Assay type: cell-based
- condition.summary: Emax; luciferase reporter, NClH1299 inducible p53 Y220C, 6 hour
Kindly supply the reported Emax values for the records listed here.

| compound | tested.on | Emax |
| --- | --- | --- |
| C[C@H](O)[C@@H](C)NC(=O)c1ccc(NCC#Cc2cc3c(N[C@@H]4CCN(C)C[C@@H]4F)cccn3c2SC(F)(F)F)cc1 [Example 376] | p53 Y220C (Homo sapiens, UniProt P04637, Y220C) | > 90% |

Provide Emax for all items below, preserving their order.
1. COc1ccc(C(=O)NC[C@@H](C)O)cc1NCC#Cc1cc2c(N[C@@H]3CCN(C)C[C@@H]3F)nccn2c1SC(F)(F)F [Example 359]
2. CCNC(=O)c1ccc(NCC#Cc2nn3c(N[C@@H]4CCN(C)C[C@@H]4F)cccc3c2SC(F)F)c(OC)c1 [Example 317]
3. COc1cc(C(N)=O)ccc1NCC#Cc1nn2c(N[C@@H]3CCN(C)C[C@@H]3F)cccc2c1SC(F)(F)F [Example 233]
4. COc1cc(C(=O)NC[C@@H](C)O)ccc1NCC#Cc1cc2c(N[C@@H]3CCN(C)C[C@@H]3F)cccn2c1SC(F)(F)F [Example 416]

1. > 90%
2. 80 to 90%
3. 80 to 90%
4. 80 to 90%

====

Kindly supply the reported pIC50 values for the records listed here.
- Test system: H1299 p53 R273H
- assay.remarks: Cell Proliferation Assay (CellTiter-Glo, CTG), H1299 p53 R273H (NClH1299-inducible p53 R273H)
- Assay type: cell-based
- condition.summary: Homo sapiens, NCI-H1299, 120 h, CellTiter-Glo, H1299 p53 R273H, 5 days
pIC50: −log10 of the molar value.

| compound.structure.string | pIC50 |
| --- | --- |
| CNC(=O)c1ccc(NCC#Cc2nc3c(N[C@@H]4C[C@H]5COC[C@@H]([C@@H]4F)N5C)cccn3c2SC(F)(F)F)c(OC)c1 | ≤ 5.00 |
| C=CC(=O)Nc1cc(NC2CCN(C)CC2)c2nc(C#CCNc3ccc(C(=O)NC)cc3OC)c(CC(F)(F)F)n2c1 | ≤ 5.00 |
| CNC(=O)c1ccc(NCC#Cc2nc3c(NC4CCN(C)CC4)cc(NC(C)=O)cn3c2CC(F)(F)F)c(OC)c1 | ≤ 5.00 |
| CNC(=O)c1ccc(NCC#Cc2nc3c(N[C@@H]4CCN(C)C[C@@H]4F)cccn3c2CC(F)(F)F)c(OC)n1 | 5.10 to 5.30 |

Next molecule, pIC50 to be filled in.
Consider the molecule shown here: `COc1ccc(C(=O)NC2CC2)cc1NCC#Cc1nc2c(N[C@@H]3CCN(C)C[C@@H]3F)cccn2c1SC(F)(F)F` What is its recorded pIC50? 5.00 to 5.10

====

- tested.on: p53 Y220C mutant protein (amino acid residues 94-293) (Homo sapiens, UniProt P04637, Y220C)
- Construct: p53 Y220C mutant protein (amino acid residues 94-293)
- assay.remarks: Thermal Shift Assay (TSA), dTM
- Type: binding
- condition.summary: thermal shift, 100 uM compound; read-out: TSA P53 Y220C dTM (100 uM)
experimental.endpoint: ΔTm at 100 µM

| compound.structure.string | ΔTm at 100 µM |
| --- | --- |
| CNC(=O)c1ccc(NCC#Cc2nc3c(N[C@@H]4CCN(C)C[C@@H]4F)cccn3c2CC(F)(F)F)cn1 | 5 to 10 °C |
| CNC(=O)c1ccc(NCC#Cc2nc3c(N[C@@H]4CCN(C)C[C@@H]4F)cccn3c2CC(F)(F)F)c(OCC(F)(F)F)c1 | 5 to 10 °C |
| CNC(=O)c1ccc(NCC#Cc2nc3c(N[C@@H]4CCN(C)C[C@@H]4F)cccn3c2SC(F)(F)F)c(OC(F)F)c1 | ≥ 10 °C |

Next compound, ΔTm at 100 µM to be filled in.
Consider the compound shown here: `CNC(=O)c1ccc(NCC#Cc2cc3c(N[C@@H]4CCN(C)C[C@@H]4F)nccn3c2SC(F)(F)F)c(OC)c1` What is its recorded ΔTm at 100 µM? ≥ 10 °C

====

- Tested on: H1299 p53 R273H
- assay.remarks: Cell Proliferation Assay (CellTiter-Glo, CTG), H1299 p53 R273H (NClH1299-inducible p53 R273H)
- Type: cell-based
- condition.summary: Homo sapiens, NCI-H1299, 120 h, CellTiter-Glo, H1299 p53 R273H, 5 days
pIC50: −log10 of the molar value.
experimental.endpoint: pIC50

Below, each entry is followed by its recorded pIC50 result.
| compound | pIC50 |
| --- | --- |
| CNC(=O)c1ccc(NCC#Cc2nn3c(N[C@@H]4CCN(C)C[C@@H]4F)cccc3c2SC(F)F)c(OC)c1 [Example 219] | 5.10 to 5.30 |
| COc1ccc(C(N)=O)cc1NCC#Cc1nc2c(N[C@@H]3CCN(C)C[C@@H]3F)cccn2c1SC(F)(F)F [Example 138] | 5.00 to 5.10 |
| COc1cc(C(=O)N2CCC2)ccc1NCC#Cc1nc2c(N[C@@H]3CCN(C)C[C@@H]3F)cccn2c1SC(F)(F)F [Example 87] | 5.00 to 5.10 |
| CNC(=O)c1ccc(NCC#Cc2nc3c(N[C@@H]4CCN(C)C[C@@H]4F)cccn3c2CC(F)(F)F)c(OCC(F)(F)F)c1 [Example 61] | ≤ 5.00 |
| CCNC(=O)c1ccc(NCC#Cc2nc3c(N[C@@H]4CCN(C)C[C@@H]4F)cccn3c2SC(F)(F)F)c(OC)c1 [Example 85] | 5.10 to 5.30 |
| COc1cc(C(=O)NCCN(C)C)ccc1NCC#Cc1nc2c(N[C@@H]3CCOC[C@@H]3F)cccn2c1SC(F)(F)F [Example 221] | > 5.30 |
| CNC(=O)c1ccc(NCC#Cc2cc3c(N[C@@H]4CCN(C)C[C@@H]4F)nccn3c2SC(F)F)c(OC)c1 [Example 196, formic acid] | ≤ 5.00 |
| COc1cc(S(C)(=O)=O)ccc1NCC#Cc1nc2c(NC3CCN(C)CC3)cccn2c1CC(F)(F)F [Example 2] | 5.10 to 5.30 |
| C=CC(=O)Nc1c(C#CCNc2ccc(C(=O)NC)cc2OC)nc2c(N[C@@H]3CCN(C)C[C@@H]3F)cccn12 [Example 23] | ≤ 5.00 |

Next compound, pIC50 to be filled in.
Consider the compound shown here: COc1cc2n[nH]cc2cc1NCC#Cc1nc2c(N[C@@H]3CCN(C)C[C@@H]3F)cccn2c1SC(F)(F)F [Example 128] What is its recorded pIC50? > 5.30
